SYSTEM UNDER TEST: LXRβ full length (FL) (Homo sapiens, UniProt P55055, INS174Q)
Construct: the full length (FL) proteins of LXRα (amino acids 1-447); NP005684; NP009052
Sequence (P55055 with tags, fused parts or gaps INS174Q): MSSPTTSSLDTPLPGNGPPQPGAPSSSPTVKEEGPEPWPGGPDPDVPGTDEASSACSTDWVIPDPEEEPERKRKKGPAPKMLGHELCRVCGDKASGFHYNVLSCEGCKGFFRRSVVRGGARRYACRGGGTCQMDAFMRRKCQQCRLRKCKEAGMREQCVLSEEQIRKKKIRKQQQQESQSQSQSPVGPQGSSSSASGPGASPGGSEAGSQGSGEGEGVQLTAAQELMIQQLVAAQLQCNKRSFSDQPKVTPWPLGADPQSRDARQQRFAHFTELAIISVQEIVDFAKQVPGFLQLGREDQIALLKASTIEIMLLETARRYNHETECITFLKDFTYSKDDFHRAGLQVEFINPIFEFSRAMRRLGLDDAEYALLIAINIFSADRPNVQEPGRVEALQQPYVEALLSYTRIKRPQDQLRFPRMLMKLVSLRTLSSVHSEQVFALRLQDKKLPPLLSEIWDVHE
PROCEDURE TEXT: LXR Gal4 reporter transient transfection assay, mammalian two-hybrid, FL-M2H Gal4β
STUDY CONDITIONS: HEK293 cells; inverse agonist unless *
pEC50: −log10 of the molar value.
Could you please report measured pEC50 for the items listed next?

What the record says about O=C(O)CS(=O)(=O)c1cccc(-c2ccc(CN(Cc3ccc(C(F)(F)F)o3)Cc3c(Cl)cccc3Cl)cc2)c1 [7/10] : pEC50 is 6.00 to 7.00

Value sought for every listed molecule: pEC50.
1. Cc1cc(C)c(CN(Cc2ccc(C(F)(F)F)o2)Cc2sc(-c3cccc(S(=O)(=O)CC(=O)O)c3)cc2Cl)c(C)c1 [15/4]
2. Cc1ccc(CN(Cc2ccc(-c3cccc(C(C)(C)C(=O)O)c3)cc2)C(=O)c2c(C)c(C)nc3cccnc23)o1 [27/132]
3. Cc1ccc2ccccc2c1C(=O)N(Cc1ccc(C(F)(F)F)o1)Cc1ccc(-c2cncc(S(=O)(=O)CC(=O)O)c2)cc1C(F)(F)F [27/62]
4. Cc1nc2ncccc2c(C(=O)N(Cc2ccc(-c3cccc(C(C)(C)C(=O)O)c3)cc2)Cc2ccc(C(F)(F)F)o2)c1C [27/92]

6.00 to 7.00
> 7.00
6.00 to 7.00
> 7.00

Value sought for every listed molecule: pEC50.
1. Cc1ccc2ccccc2c1C(=O)N(Cc1ccc(C(F)(F)F)o1)Cc1ccc(-c2cncc(C(C)(C)C(=O)O)c2)cc1OC(F)F [27/64]
2. Cc1nc2cccnc2c(C(=O)N(Cc2ccc(-c3cccc(C(C)(C)C(=O)O)c3)cc2)Cc2ccc(C(F)(F)F)o2)c1C [27/93]

> 7.00
> 7.00

Attribution: patent US20200131144A1
